# Test System: HMM-mfMSR1 (monkey MSR1 extracellular domain)
# Sequence (as listed by the source): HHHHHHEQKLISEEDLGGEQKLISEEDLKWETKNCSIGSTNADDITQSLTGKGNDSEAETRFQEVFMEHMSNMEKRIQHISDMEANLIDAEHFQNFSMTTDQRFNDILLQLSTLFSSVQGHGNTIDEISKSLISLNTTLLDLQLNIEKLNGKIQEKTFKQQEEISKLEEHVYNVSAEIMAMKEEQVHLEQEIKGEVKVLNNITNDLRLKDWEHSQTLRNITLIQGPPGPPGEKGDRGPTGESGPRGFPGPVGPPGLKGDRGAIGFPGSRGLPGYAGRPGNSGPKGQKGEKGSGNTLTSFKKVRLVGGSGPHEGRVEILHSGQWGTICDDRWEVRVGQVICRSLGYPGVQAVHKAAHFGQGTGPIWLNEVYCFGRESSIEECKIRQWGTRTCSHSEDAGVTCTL
# Experiment Notes: Biacore surface plasmon resonance binding kinetics of anti-MSR1 mAbs, antibody-capture format
# Conditions Used: 37° C.; analyte HMM-mfMSR1; * = no dissociation observed, kd manually fixed at 1.00E−05; NB = no binding observed

| Molecule | kd (s⁻¹) |
| --- | --- |
| H1H27739P-N297Q: anti-MSR1 antibody "made with an N297Q single point mutation in human Fcγ portion" (antibody, V domains shown) VH: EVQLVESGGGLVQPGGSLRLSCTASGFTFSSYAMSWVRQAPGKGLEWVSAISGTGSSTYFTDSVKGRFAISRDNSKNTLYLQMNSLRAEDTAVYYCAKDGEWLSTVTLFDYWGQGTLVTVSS VL: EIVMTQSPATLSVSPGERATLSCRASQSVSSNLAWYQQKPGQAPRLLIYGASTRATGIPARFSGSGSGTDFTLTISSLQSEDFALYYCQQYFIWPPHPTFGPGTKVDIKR | 0.000842 |
| H1H27747P-N297Q (antibody, V domains shown) VH: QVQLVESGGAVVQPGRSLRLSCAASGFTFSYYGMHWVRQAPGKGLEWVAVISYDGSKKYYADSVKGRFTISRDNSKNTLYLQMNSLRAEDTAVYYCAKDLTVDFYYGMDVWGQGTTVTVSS VL: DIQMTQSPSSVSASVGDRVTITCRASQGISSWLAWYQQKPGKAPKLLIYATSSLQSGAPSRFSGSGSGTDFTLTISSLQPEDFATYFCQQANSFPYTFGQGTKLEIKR | 0.00228 |
| H1H21227N-N297Q: "modified versions of 21227N (H1H21227N-N297Q and H1H21227N-N297D)"; anti-MSR1 antibody "with a N297Q single point mutation" (antibody, V domains shown) VH: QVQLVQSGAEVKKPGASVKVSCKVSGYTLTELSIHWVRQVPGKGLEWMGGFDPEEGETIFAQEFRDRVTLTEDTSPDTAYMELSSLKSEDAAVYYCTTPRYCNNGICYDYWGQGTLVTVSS VL: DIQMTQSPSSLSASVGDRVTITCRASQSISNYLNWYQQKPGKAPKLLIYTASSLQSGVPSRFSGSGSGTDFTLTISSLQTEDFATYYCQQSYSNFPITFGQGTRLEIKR | 1.08e-05 |
| H1H21231N-N297Q: modified version of "21231N (H1H21231N-N297Q) anti-MSR1 antibodies" with "a N297Q single point mutation" (antibody, V domains shown) VH: EVQLVESGGGLVQPGGSLRLSCAASGFTFSDHYMDWVRQAPGKGLEWVGRTRNKANSHTTEYTASVTGRFTISRDDSRNSLYLQMNSLKTEDTAVYYCVRAGIIGTLFDYWGQGTLVTVSS VL: DIQMTQFPSSLSASVGDRVTITCRASQSISSFLNWFQQKPGKAPKFLIYAASSLQSGVPSRFSGSGSGTDFTLTISSLQPEDFATYYCQQSYSSPPITFGQGTRLEIKR | 0.000109 |
| H1H21227N-N297D: "The 21227N antibody was also produced as a third version with a N297D mutation" (antibody, V domains shown) VH: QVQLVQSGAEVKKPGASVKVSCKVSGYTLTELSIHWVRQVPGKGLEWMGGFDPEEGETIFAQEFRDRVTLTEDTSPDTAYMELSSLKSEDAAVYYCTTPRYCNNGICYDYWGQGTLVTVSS VL: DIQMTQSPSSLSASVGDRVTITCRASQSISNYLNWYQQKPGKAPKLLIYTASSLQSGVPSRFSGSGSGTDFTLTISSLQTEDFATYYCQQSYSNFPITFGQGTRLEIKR | 2.42e-05 |
